Read-out: Interleukin-1 alpha (IL1a), IL1A (gene 3552)
ASSAY_PROTOCOL: BSK_BE3C_IL1a: BioMAP Diversity Plus: BE3C Assay for Interleukin-1 alpha (IL1a) Biomarker Activity (AID 2283016)
CONDITION_PARAMETERS: primary human bronchial epithelial cells; actives raise or lower the signal
The source made the active and inactive calls. Rule for the calls: active = hit-call score of the fitted dose curve at least 0.9, where 1 is the maximum; inactive = score below 0.9.
Select the correct class. Options are True = active, False = inactive and nothing else.

Take a look at these entries with their results.
{"columns": ["COMPOUND_STRUCTURE_STRING", "ANSWER_LABEL"],
 "data": [
  ["CN(C)c1ccc(C(=C2C=CC(=[N+](C)C)C=C2)c2ccc(N(C)C)cc2)cc1", "True"],
  ["CCCCCCCC[Si](OCC)(OCC)OCC", "False"],
  ["CCN(Cc1cccnc1)C(=O)c1cccc(Cl)c1[C@]1(C)C(=O)N(Cc2ccc(OC)cc2OC)c2ccc(Cl)cc21", "False"],
  ["Cc1oc2c(NC(=O)c3c(Cl)cccc3Cl)cccc2c1C(C)(C)O", "True"],
  ["O=C(OCCCCCCOC(=O)c1ccccc1)c1ccccc1", "False"]
]}

Prompt: Name the outcome recorded for `Oc1ccccc1` in the assay.
Completion: False

###

ASSAY_PROTOCOL: ACEA_AR_antagonist_AUC_viability: ACEA Biosciences xCELLigence Real-Time Cell Analysis on Androgen Receptor Antagonism for Viability (AID 2283776);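 note: 22Rv1 human prostate cancer cells growing on impedance electrode plates; area under impedance growth curve at 80 h after dosing as viability; hits lower the growth signal relative to DMSO meaning cytotoxicity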
Records with an inconclusive call do not appear. Active and inactive are the calls of the source. Rule for the calls: active = hit-call score of the fitted dose curve at least 0.9, where 1 is the maximum; inconclusive = response in the unintended direction; inactive = score below 0.9.
MEASURED_QUANTITY: AC50

Observe how each entry below is paired with its result.
{"columns": ["COMPOUND_STRUCTURE_STRING", "AC50"],
 "data": [
  ["O=C(OCCCCCCOC(=O)c1ccccc1)c1ccccc1", "71.5 µM (active)"],
  ["Cc1ccc(C(C)C)cc1", "inactive"],
  ["CCCCOC(=O)c1ccc(O)cc1", "56.7 µM (active)"],
  ["CCCCOC(=O)CC(CC(=O)OCCCC)(OC(C)=O)C(=O)OCCCC", "inactive"],
  ["Oc1ccccc1", "inactive"]
]}

Working through the 2 compounds below one at a time, give AC50 for each.
1. CC1=CC(=O)/C(=C(/C)O)C(=O)O1
2. CCCCCCCCN(C)CCCCCCCC

Completion:
["inactive", "inactive"]

Quick one: give me AC50 for each item below, same order please.
1. CN(C[C@@H](CC[N+]12CCC(C3CCCCC3)(CC1)CC2)c1ccc(Cl)c(Cl)c1)C(=O)c1cc(C(F)(F)F)cc(C(F)(F)F)c1
2. Cc1occc1C(=O)Nc1ccc(C(=O)N2CCC(F)(F)/C(=C\C(=O)N3CCC(N4CCCCC4)CC3)c3ccccc32)cc1
3. CC(C)(C)c1cc(/C=C2\SC(N)=NC2=O)cc(C(C)(C)C)c1O
4. CCCCCCCCOc1ccc(C(=O)c2ccccc2)c(O)c1

Completion:
5.8 µM (active)
41.1 µM (active)
15.2 µM (active)
13.7 µM (active)

Batch of 5 compounds: report AC50 for each.
1. CC(C)(O)c1ccc(CNC(=O)c2cccnc2Oc2ccc3nonc3c2)cc1
2. Cc1cccc2ccccc12
3. O=C1CCC(C2CCCCC2)CC1
4. CC(C)(c1cc(Br)c(O)c(Br)c1)c1cc(Br)c(O)c(Br)c1
5. COc1cccc([C@H](O)C2CCN(CCc3ccc(F)cc3)CC2)c1OC

Completion:
1. inactive
2. inactive
3. 74.1 µM (active)
4. 24.3 µM (active)
5. 35.7 µM (active)

###

Read-out: Insulin Like Growth Factor 1 (IGF1), IGF1 (gene 3479)
ASSAY_PROTOCOL: LTEA_HepaRG_IGF1: Life Technologies and Expression Analysis (LTEA) Assay for Insulin Like Growth Factor 1 (IGF1) using HepaRG (AID 2283506)
CONDITION_PARAMETERS: mRNA level, 48 h; actives raise or lower the signal
Calls of active or inactive are those of the source. How the source made its calls: active means hit-call score of the fitted dose curve at least 0.9, where 1 is the maximum; inactive means score below 0.9.
MEASURED_QUANTITY: AC50

Worked examples, 4 compounds total:
{"columns": ["COMPOUND_STRUCTURE_STRING", "REPORTED_MEASUREMENT"],
 "data": [
  ["CC(C)(O)c1ccc(CNC(=O)c2cccnc2Oc2ccc3nonc3c2)cc1", "22.7 µM (active)"],
  ["O=C=NCCCCCCN=C=O", "inactive"],
  ["O=C(O)Cn1c(=O)n(Cc2ccc(Br)cc2F)c(=O)c2ccc(Cl)cc21", "inactive"],
  ["CCOC(=O)O[C@H](C)OC(=O)c1ccc2c(c1)cc(C(=O)NC1CCN(C(C)C)CC1)n2Cc1cc(-c2ccc(Cl)s2)on1", "inactive"]
]}

Please look at the following compound next.
Prompt: Entry under review: `CCCCCCCCCCCC[N+](C)(C)C` . Reported AC50?
Completion: 77.5 µM (active)

###

STUDY_SYSTEM: Myc proto-oncogene protein (Homo sapiens)
ASSAY_PROTOCOL: ATG_Myc_CIS: Attagene CIS-FACTORIAL HepG2 Assay for human Myelocytomatosis (Myc) Proto-Oncogene Transcription Factor (AID 2282990)
CONDITION_PARAMETERS: HepG2, Attagene cis-reporter transcription factor activity; actives raise or lower the signal
The source made the active and inactive calls. Rule for the calls: active = hit-call score of the fitted dose curve at least 0.9, where 1 is the maximum; inactive = score below 0.9.
Parameter call: string, one of yes (1) for active, no (0) for inactive

Solved cases (4 shown):
{"columns": ["COMPOUND", "ANSWER_LABEL"],
 "data": [
  ["c1ccc2n[nH]nc2c1", "no (0)"],
  ["Cc1cn([C@H]2C[C@H](N=[N+]=[N-])[C@@H](CO)O2)c(=O)[nH]c1=O", "no (0)"],
  ["COCC(C)OCC(C)OCC(C)O (configuration not stated)", "no (0)"],
  ["Cc1occc1C(=O)Nc1ccc(C(=O)N2CCC(F)(F)/C(=C\\C(=O)N3CCC(N4CCCCC4)CC3)c3ccccc32)cc1", "yes (1)"]
]}

Prompt: Please state the recorded outcome for this compound: `c1ccc2ccccc2c1`
Completion: no (0)

Prompt: // param item: `NC(=O)c1nc(-c2cccc(-c3cc(F)ccc3OCC(F)(F)C(F)(F)F)c2)n[nH]1` ; yields the recorded call
Completion: no (0)

Prompt: Hi team, can someone confirm the assay call for CN1C(=O)N(c2ccccc2Br)Cc2cnc(Nc3ccc4c(c3)OCC(CO)O4)nc21 (configuration not stated) ?
Completion: yes (1)

Prompt: Hi, sorry to bother you, what did the test record for `Cc1ccc2oc(CN(Cc3ccccc3)C(=O)Nc3c(F)cc(F)cc3F)c(-c3ccc(Cl)cc3)c2c1` ?
Completion: no (0)

Prompt: Recorded test outcome, item `CCCCCCCCOc1ccc(C(=O)c2ccccc2)c(O)c1`
Completion: no (0)

Prompt: Which outcome was assigned to `O=C=NCCCCCCN=C=O` in this test?
Completion: no (0)

Prompt: What call does the record list for `C[C@]12CC[C@@H]3c4ccc(O)cc4CC[C@H]3[C@@H]1CCC2=O` ?
Completion: no (0)

Prompt: Identify the outcome logged in this assay for the compound shown: `CCN(Cc1cccc(S(=O)(=O)O)c1)c1ccc(C(=C2C=CC(=[N+](CC)Cc3cccc(S(=O)(=O)O)c3)C=C2)c2ccccc2S(=O)(=O)[O-])cc1`
Completion: no (0)

###

Read-out: JUN Transcription Factor, JUN (gene 3725)
ASSAY_PROTOCOL: LTEA_HepaRG_JUN: Life Technologies and Expression Analysis (LTEA) Assay for JUN Transcription Factor using HepaRG (AID 2283513)
CONDITION_PARAMETERS: mRNA level, 48 h; actives raise or lower the signal
Activity calls are given as the source filed them. Rule for the calls: active = hit-call score of the fitted dose curve at least 0.9, where 1 is the maximum; inactive = score below 0.9.
Choose one outcome from this list and give only that: active, inactive

Worked examples, 4 molecules total:
{"columns": ["MOLECULE", "ANSWER_LABEL"],
 "data": [
  ["c1ccc2n[nH]nc2c1", "inactive"],
  ["CCO[Si](CCCNC(N)=O)(OCC)OCC", "inactive"],
  ["O=c1ccc2ccccc2o1", "inactive"],
  ["CC(C)(O)c1ccc(CNC(=O)c2cccnc2Oc2ccc3nonc3c2)cc1", "inactive"]
]}

Prompt: Per the records of this test, what outcome belongs to CN1C(=O)N(c2ccccc2Br)Cc2cnc(Nc3ccc4c(c3)OCC(CO)O4)nc21 (stereo not given) ?
Completion: active

Prompt: I'd appreciate the recorded outcome for `O=C=NCCCCCCN=C=O` from this test.
Completion: inactive

Prompt: Check the results log: what was the call for `CCCCCCCCCCCC[N+](C)(C)C` ?
Completion: active

Prompt: # outcome recorded in this test, key = `O=c1[nH]sc2ccccc12`
Completion: inactive

Prompt: Can you look up the reported call for `CN(C)c1ccc(C(=C2C=CC(=[N+](C)C)C=C2)c2ccc(N(C)C)cc2)cc1` for me?
Completion: active

Prompt: For `CC(=O)N1CCN(c2ccc(OC[C@H]3CO[C@](Cn4ccnc4)(c4ccc(Cl)cc4Cl)O3)cc2)CC1` , what call appears in the results of this test?
Completion: active
